system under test: Adenosine receptor A1 (Homo sapiens) (UniProt P30542)
protocol text: Allosteric enhancer activity at human adenosine A1 receptor expressed in CHO cell membranes assessed as shift in [3H]CCPA Bmax level at 10 uM by saturation binding assay
property: fold change (FC)

Cc1c(C#Cc2ccccc2)sc(N)c1C(=O)c1ccc(Cl)cc1 :: 2.5
Cc1cccc(C#Cc2sc(N)c(C(=O)c3ccc(Cl)cc3)c2CC(C)(C)C)c1 :: 7.5
Nc1sc(-c2ccccc2)c(CN(C2CCCCC2)C2CCCCC2)c1C(=O)c1ccc(Cl)cc1 :: 3.5

A = Nc1sc(C#Cc2ccccc2)c(CN(C2CCCCC2)C2CCCCC2)c1C(=O)c1ccc(Cl)cc1
B = CCCCCc1ccc(C#Cc2sc(N)c(C(=O)c3ccc(Cl)cc3)c2CC(C)(C)C)cc1
C = Nc1sc(C#Cc2ccccc2)c(CN2CCN(c3ccc(C(F)(F)F)cc3)CC2)c1C(=O)c1ccc(Cl)cc1
Order the entries by their reported fold change (FC), beginning at the minimum. Rank them, then answer with their labels in that order.
A, C, B
(A: 1.2, C: 2.9, B: 5.5)

###

system under test: Adenosine receptor A2a (Homo sapiens) (UniProt P29274)
Sequence (P29274 whole entry): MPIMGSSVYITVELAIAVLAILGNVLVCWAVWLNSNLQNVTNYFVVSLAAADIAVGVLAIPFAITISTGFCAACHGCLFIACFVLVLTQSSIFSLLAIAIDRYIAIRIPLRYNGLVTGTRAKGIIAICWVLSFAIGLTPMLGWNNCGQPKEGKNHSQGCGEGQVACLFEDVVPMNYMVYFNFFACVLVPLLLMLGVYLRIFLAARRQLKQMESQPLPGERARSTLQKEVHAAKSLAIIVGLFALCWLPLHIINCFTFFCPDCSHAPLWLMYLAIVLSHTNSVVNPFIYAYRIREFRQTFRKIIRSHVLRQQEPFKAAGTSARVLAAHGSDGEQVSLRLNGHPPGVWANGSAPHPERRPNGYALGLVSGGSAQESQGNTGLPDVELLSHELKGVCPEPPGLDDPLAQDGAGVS
protocol text: Displacement of [3H]ZM241385 from human adenosine A2A receptor expressed in CHO cell membranes at 10 uM
property: inhibition

Record excerpt, results attached:
Cc1ccc(C#Cc2sc(N)c(C(=O)c3ccc(Cl)cc3)c2CC(C)(C)C)cc1 :: < 15%
COc1ccc(C#Cc2sc(N)c(C(=O)c3ccc(Cl)cc3)c2CC(C)(C)C)cc1OC :: < 15%

Next item in the queue.
What is its inhibition for Adenosine receptor A2a (Homo sapiens) (UniProt P29274)? Entry: Nc1sc(C#Cc2ccccc2)cc1C(=O)c1ccc(Cl)cc1
< 15%

###

system under test: Adenosine receptor A1 (Homo sapiens)
protocol text: Allosteric enhancer activity at human adenosine A1 receptor expressed in CHO cell membranes assessed as shift in CCPA binding Ki level at 10 uM by [3H]DPCPX competition binding assay
property: fold change (FC)

A = CCCCCc1ccc(C#Cc2sc(N)c(C(=O)c3ccc(Cl)cc3)c2CC(C)(C)C)cc1
B = Nc1sc(CCc2ccccc2)cc1C(=O)c1ccc(Cl)cc1
In terms of reported fold change (FC), does A or B have the smaller number? In your reply, give the label of the chosen option.
B
(B: 1.3, A: 3.7)

###

system under test: Adenosine receptor A2a (Homo sapiens)
protocol text: Displacement of [3H]ZM241385 from human adenosine A2A receptor expressed in CHO cell membranes at 10 uM
property: inhibition

COc1ccc(C#Cc2sc(N)c(C(=O)c3ccc(Cl)cc3)c2CC(C)(C)C)cc1 :: < 15%

Name the reported inhibition value associated with the compound Nc1sc(C#Cc2ccccc2)c(CN2CCN(c3ccc(Cl)c(Cl)c3)CC2)c1C(=O)c1ccc(Cl)cc1
< 15%

Name the reported inhibition value associated with the compound Nc1sc(C#Cc2ccccc2)c(-c2ccccc2)c1C(=O)c1ccc(Cl)cc1
< 15%

Name the reported inhibition value associated with the compound Nc1sc(CCc2ccccc2)c(-c2ccccc2)c1C(=O)c1ccc(Cl)cc1
< 15%

Name the reported inhibition value associated with the compound Cc1ccc(C)c(C#Cc2sc(N)c(C(=O)c3ccc(Cl)cc3)c2CC(C)(C)C)c1
< 15%

Name the reported inhibition value associated with the compound Nc1sc(C#Cc2ccccc2)c(CN(C2CCCCC2)C2CCCCC2)c1C(=O)c1ccc(Cl)cc1
< 15%

Name the reported inhibition value associated with the compound Cc1cc(C)c(C#Cc2sc(N)c(C(=O)c3ccc(Cl)cc3)c2CC(C)(C)C)cc1C
< 15%

Name the reported inhibition value associated with the compound Nc1sc(C#Cc2ccccc2)c(CN2CCN(c3ccccc3)CC2)c1C(=O)c1ccc(Cl)cc1
< 15%

Name the reported inhibition value associated with the compound Nc1sc(CCc2ccccc2)cc1C(=O)c1ccc(Cl)cc1
< 15%

###

system under test: Adenosine receptor A1 (Homo sapiens)
protocol text: Allosteric enhancer activity at human adenosine A1 receptor expressed in CHO cell membranes assessed as shift in CCPA binding Ki level at 10 uM by [3H]DPCPX competition binding assay
property: fold change (FC)

Record excerpt, results attached:
Nc1sc(C#Cc2ccccc2)c(-c2ccccc2)c1C(=O)c1ccc(Cl)cc1 :: 1.5
Cc1sc(N)c(C(=O)c2cccc(C(F)(F)F)c2)c1C :: 1.3

A = Nc1sc(C#Cc2ccccc2)c(CN2CCN(c3ccc(Cl)c(Cl)c3)CC2)c1C(=O)c1ccc(Cl)cc1
B = CC(C)(C)Cc1c(C#Cc2ccsc2)sc(N)c1C(=O)c1ccc(Cl)cc1
Which record would sort first by descending fold change (FC), A or B ? In your reply, give the label of the chosen option.
B
(B: 3.9, A: 1.7)

a = Nc1sc(-c2ccccc2)c(CN(C2CCCCC2)C2CCCCC2)c1C(=O)c1ccc(Cl)cc1
b = Cc1c(CCc2ccccc2)sc(N)c1C(=O)c1ccc(Cl)cc1
In terms of reported fold change (FC), does a or b have the smaller number? In your reply, give the label of the chosen option.
b
(b: 1.6, a: 3.2)

###

system under test: Adenosine receptor A1 (Homo sapiens)
protocol text: Allosteric enhancer activity at human adenosine A1 receptor expressed in CHO cell membranes assessed as shift in [3H]CCPA Bmax level at 10 uM by saturation binding assay
property: fold change (FC)

Record excerpt, results attached:
CC(C)(C)Cc1c(C#CC2CCCCC2)sc(N)c1C(=O)c1ccc(Cl)cc1 :: 8
Nc1sc(C#Cc2ccccc2)c(CN2CCN(c3ccc(Cl)cc3)CC2)c1C(=O)c1ccc(Cl)cc1 :: 3.4
Nc1sc(CCc2ccccc2)c(-c2ccccc2)c1C(=O)c1ccc(Cl)cc1 :: 2.2

a = Nc1sc(C#Cc2ccccc2)c(CN2CCN(c3ccc(Cl)c(C(F)(F)F)c3)CC2)c1C(=O)c1ccc(Cl)cc1
b = COc1ccc(-c2sc(N)c(C(=O)c3ccc(Cl)cc3)c2CC(C)(C)C)cc1
In terms of reported fold change (FC), does a or b have the smaller number? In your reply, give the label of the chosen option.
a
(a: 2.7, b: 6.1)

###

system under test: UniProtKB P30542
Sequence (whole entry): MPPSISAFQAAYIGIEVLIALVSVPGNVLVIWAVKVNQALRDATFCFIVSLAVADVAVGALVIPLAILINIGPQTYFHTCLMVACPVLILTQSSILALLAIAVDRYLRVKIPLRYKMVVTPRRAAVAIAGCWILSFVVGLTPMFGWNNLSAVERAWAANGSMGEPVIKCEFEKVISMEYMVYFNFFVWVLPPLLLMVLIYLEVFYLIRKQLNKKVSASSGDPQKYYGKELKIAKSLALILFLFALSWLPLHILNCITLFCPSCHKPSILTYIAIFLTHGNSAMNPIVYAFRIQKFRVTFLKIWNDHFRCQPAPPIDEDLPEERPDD
protocol text: Allosteric enhancer activity at human adenosine A1 receptor expressed in CHO cells assessed as inhibition of forskolin-induced cAMP production at 100 nM in presence of 1 pM CCPA
Assay type: functional, cell-based
property: inhibition (%)

Record excerpt, results attached:
CC(C)(C)Cc1c(C#CC2CCCCC2)sc(N)c1C(=O)c1ccc(Cl)cc1 :: 71
Nc1sc(C#Cc2ccccc2)c(CN2CCN(c3ccc(C(F)(F)F)cc3)CC2)c1C(=O)c1ccc(Cl)cc1 :: 33
Nc1sc(C#Cc2ccccc2)c(CN2CCN(c3ccccc3)CC2)c1C(=O)c1ccc(Cl)cc1 :: 31
Cc1ccc(C)c(C#Cc2sc(N)c(C(=O)c3ccc(Cl)cc3)c2CC(C)(C)C)c1 :: 66
Cc1cccc(C#Cc2sc(N)c(C(=O)c3ccc(Cl)cc3)c2CC(C)(C)C)c1 :: 71

A = Cc1cc(C)c(C#Cc2sc(N)c(C(=O)c3ccc(Cl)cc3)c2CC(C)(C)C)cc1C
B = Nc1sc(C#Cc2ccccc2)c(CN2CCN(c3ccc(Cl)cc3)CC2)c1C(=O)c1ccc(Cl)cc1
In terms of reported inhibition, does A or B have the smaller number? In your reply, give the label of the chosen option.
B

A = Cc1ccc(C#Cc2sc(N)c(C(=O)c3ccc(Cl)cc3)c2CC(C)(C)C)cc1
B = CC(C)(C)Cc1c(CCc2ccccc2)sc(N)c1C(=O)c1ccc(Cl)cc1
Which record would sort first by descending inhibition, A or B ? In your reply, give the label of the chosen option.
A

###

system under test: UniProt P30542
protocol text: Allosteric enhancer activity at human adenosine A1 receptor expressed in CHO cells assessed as inhibition of forskolin-induced cAMP production at 10 uM
Assay type: functional, cell-based
property: inhibition (%)

Record excerpt, results attached:
Nc1sc(C#Cc2ccccc2)c(CN2CCN(c3ccc(Cl)cc3)CC2)c1C(=O)c1ccc(Cl)cc1 :: 35
Cc1ccc(C#Cc2sc(N)c(C(=O)c3ccc(Cl)cc3)c2CC(C)(C)C)cc1 :: 70
Nc1sc(C#Cc2ccccc2)c(-c2ccccc2)c1C(=O)c1ccc(Cl)cc1 :: 24
Nc1sc(C#Cc2ccccc2)c(CN2CCN(c3ccc(Cl)c(Cl)c3)CC2)c1C(=O)c1ccc(Cl)cc1 :: 22
Nc1sc(C#Cc2ccccc2)c(CN(C2CCCCC2)C2CCCCC2)c1C(=O)c1ccc(Cl)cc1 :: 10
Nc1sc(C#Cc2ccccc2)c(CN2CCN(c3ccc(F)cc3)CC2)c1C(=O)c1ccc(Cl)cc1 :: 37
Cc1c(CCc2ccccc2)sc(N)c1C(=O)c1ccc(Cl)cc1 :: 28
CCCCCc1ccc(C#Cc2sc(N)c(C(=O)c3ccc(Cl)cc3)c2CC(C)(C)C)cc1 :: 60
CCCCCC#Cc1sc(N)c(C(=O)c2ccc(Cl)cc2)c1CC(C)(C)C :: 66
Nc1sc(CCc2ccccc2)cc1C(=O)c1ccc(Cl)cc1 :: 22

A = Cc1cccc(C#Cc2sc(N)c(C(=O)c3ccc(Cl)cc3)c2CC(C)(C)C)c1
B = Cc1ccc(C#Cc2sc(N)c(C(=O)c3ccc(Cl)cc3)c2C)cc1
C = Nc1sc(C#Cc2ccccc2)cc1C(=O)c1ccc(Cl)cc1
Please rank these compounds by inhibition in descending order. Rank them, then answer with their labels in that order.
A, B, C
